- ASSAY_SUMMARY: Growth inhibition of human Gurav cells by SRB assay
- Type: functional
Mark Yes for GI50 under 7 µM, No if at or over.

Solved cases (4 shown):
Query :: For `c1ccc(-c2ccc(-c3ccc(-c4nc5ccccc5[nH]4)cc3)cc2)cc1` , is the recorded GI50 below the cut-off of 7 µM?
Result :: No

Query :: For `Cc1ccc2[nH]c(-c3ccc(-c4ccc(-c5ccc(O)cc5)cc4)cc3)nc2c1` , is the recorded GI50 below the cut-off of 7 µM?
Result :: No

Query :: For `Oc1ccc(-c2ccc(-c3ccc(-c4nc5ccccc5[nH]4)cc3)cc2)cc1` , is the recorded GI50 below the cut-off of 7 µM?
Result :: No

Query :: For `Oc1cccc2[nH]c(-c3ccc(-c4ccc(-c5cccc(Cl)c5)cc4)cc3)nc12` , is the recorded GI50 below the cut-off of 7 µM?
Result :: Yes

---
Query :: For `Oc1cccc2[nH]c(-c3ccc(-c4ccc(-c5ccc(F)cc5)cc4)cc3)nc12` , is the recorded GI50 below the cut-off of 7 µM?
Result :: Yes

Query :: For `COc1cccc2c1C(=O)c1c(O)c3c(c(O)c1C2=O)C[C@@](O)(C(=O)CO)C[C@@H]3O[C@H]1C[C@H](N)[C@H](O)[C@H](C)O1` , is the recorded GI50 below the cut-off of 7 µM?
Result :: Yes

Query :: For `Fc1ccc(-c2ccc(-c3ccc(-c4nc5ccccc5[nH]4)cc3)cc2)cc1` , is the recorded GI50 below the cut-off of 7 µM?
Result :: No

Query :: For `COc1ccc(-c2ccc(-c3ccc(-c4nc5ccccc5[nH]4)cc3)cc2)cc1OC` , is the recorded GI50 below the cut-off of 7 µM?
Result :: No

Query :: For `COc1ccc(-c2ccc(-c3ccc(-c4nc5c(O)cccc5[nH]4)cc3)cc2)cc1` , is the recorded GI50 below the cut-off of 7 µM?
Result :: Yes

* * *

Entries and their log10 of GI50 values follow.
- System: ZR-75-1
- ASSAY_SUMMARY: Growth inhibition of human ZR-75-1 cells by SRB assay
- Type: functional
Short version: log10 scale, GI50, µM.

Query :: For the molecule `FC(F)(F)c1ccc(-c2ccc(-c3ccc(-c4nc5ccccc5[nH]4)cc3)cc2)cc1` , what log10 of GI50 is on record?
Result :: 1.68

Query :: For the molecule `COc1ccc(-c2ccc(-c3ccc(-c4nc5cc(C)ccc5[nH]4)cc3)cc2)cc1OC` , what log10 of GI50 is on record?
Result :: 0.49

Query :: For the molecule `Oc1ccc(-c2ccc(-c3ccc(-c4nc5c(O)cccc5[nH]4)cc3)cc2)cc1` , what log10 of GI50 is on record?
Result :: 0.42

Query :: For the molecule `Cc1ccc2[nH]c(-c3ccc(-c4ccc(-c5ccc(C(F)(F)F)cc5)cc4)cc3)nc2c1` , what log10 of GI50 is on record?
Result :: 0.38

---
Query :: For the molecule `COc1ccc(-c2ccc(-c3ccc(-c4nc5ccccc5[nH]4)cc3)cc2)cc1OC` , what log10 of GI50 is on record?
Result :: 1.60

* * *

- ASSAY_SUMMARY: Growth inhibition of human Gurav cells by SRB assay
- Type: functional
Entries and their log10(GI50) values follow.
Short version: log10 scale, GI50, µM.

Query :: For the compound `Cc1ccc2[nH]c(-c3ccc(-c4ccc(-c5ccc(F)cc5)cc4)cc3)nc2c1` , what log10(GI50) is on record?
Result :: 1.22

Query :: For the compound `COc1ccc(-c2ccc(-c3ccc(-c4nc5cc(C)ccc5[nH]4)cc3)cc2)cc1` , what log10(GI50) is on record?
Result :: 0.97

Query :: For the compound `Oc1cccc2[nH]c(-c3ccc(-c4ccc(-c5ccc(OC(F)(F)F)cc5)cc4)cc3)nc12` , what log10(GI50) is on record?
Result :: 0.56

Query :: For the compound `FC(F)(F)Oc1ccc(-c2ccc(-c3ccc(-c4nc5ccccc5[nH]4)cc3)cc2)cc1` , what log10(GI50) is on record?
Result :: 2.00

---
Query :: For the compound `Cc1ccc2[nH]c(-c3ccc(-c4ccc(-c5ccc(OC(F)(F)F)cc5)cc4)cc3)nc2c1` , what log10(GI50) is on record?
Result :: 1.04

* * *

- System: ZR-75-1
- ASSAY_SUMMARY: Growth inhibition of human ZR-75-1 cells by SRB assay
- Format: functional
Entries and their log10(GI50) values follow.
Short version: log10 scale, GI50, µM.

Worked set:
Query :: For the molecule `COc1cc(-c2ccc(-c3ccc(-c4nc5c(O)cccc5[nH]4)cc3)cc2)cc(OC)c1OC` , what log10(GI50) is on record?
Result :: -0.72

Query :: For the molecule `FC(F)(F)Oc1ccc(-c2ccc(-c3ccc(-c4nc5ccccc5[nH]4)cc3)cc2)cc1` , what log10(GI50) is on record?
Result :: 2.00

Query :: For the molecule `Oc1ccc(-c2ccc(-c3ccc(-c4nc5ccccc5[nH]4)cc3)cc2)cc1` , what log10(GI50) is on record?
Result :: 2.00

Query :: For the molecule `COc1ccc(-c2ccc(-c3ccc(-c4nc5c(O)cccc5[nH]4)cc3)cc2)cc1` , what log10(GI50) is on record?
Result :: 0.91

Query :: For the molecule `COc1ccc(-c2ccc(-c3ccc(-c4nc5ccccc5[nH]4)cc3)cc2)cc1` , what log10(GI50) is on record?
Result :: 1.55

---
Query :: For the molecule `Oc1cccc2[nH]c(-c3ccc(-c4ccc(-c5ccc(OC(F)(F)F)cc5)cc4)cc3)nc12` , what log10(GI50) is on record?
Result :: 0.58

Query :: For the molecule `Oc1cccc2[nH]c(-c3ccc(-c4ccc(-c5cccc(Cl)c5)cc4)cc3)nc12` , what log10(GI50) is on record?
Result :: 0.38

Query :: For the molecule `Cc1ccc2[nH]c(-c3ccc(-c4ccc(-c5ccc(O)cc5)cc4)cc3)nc2c1` , what log10(GI50) is on record?
Result :: 1.26

Query :: For the molecule `Clc1cccc(-c2ccc(-c3ccc(-c4nc5ccccc5[nH]4)cc3)cc2)c1` , what log10(GI50) is on record?
Result :: 1.61

* * *

Entries and their inhibition values follow.
- Species: Bos taurus
- ASSAY_SUMMARY: Inhibition of bovine tubulin polymerization after 1 hr at 1 min interval by fluorescence assay
Put down the number, then write its unit next to it.

Worked set:
Query :: For the compound `COc1cc(-c2ccc(-c3ccc(-c4nc5c(O)cccc5[nH]4)cc3)cc2)cc(OC)c1OC` , what inhibition is on record?
Result :: 98.3%

Query :: For the compound `COc1cc(-c2ccc(-c3ccc(-c4nc5cc(C)ccc5[nH]4)cc3)cc2)cc(OC)c1OC` , what inhibition is on record?
Result :: 48.8%

Query :: For the compound `Oc1ccc(-c2ccc(-c3ccc(-c4nc5c(O)cccc5[nH]4)cc3)cc2)cc1` , what inhibition is on record?
Result :: 36.3%

Next, consider the following compound.
Query :: For the compound `COC(=O)Nc1nc2cc(C(=O)c3cccs3)ccc2[nH]1` , what inhibition is on record?
Result :: 58.9%

* * *

Entries and their GI50 values follow.
- Test system: ZR-75-1
- ASSAY_SUMMARY: Growth inhibition of human ZR-75-1 cells by SRB assay
- Assay type: functional
Answer in µM, number only, no unit symbol.

Worked set:
Query :: For the compound `Cc1ccc2[nH]c(-c3ccc(-c4ccc(-c5ccc(N(C)C)cc5)cc4)cc3)nc2c1` , what GI50 is on record?
Result :: 7.2

Query :: For the compound `Cc1ccc2[nH]c(-c3ccc(-c4ccc(-c5ccc(OC(F)(F)F)cc5)cc4)cc3)nc2c1` , what GI50 is on record?
Result :: 2.41

Query :: For the compound `COc1ccc(-c2ccc(-c3ccc(-c4nc5cc(C)ccc5[nH]4)cc3)cc2)cc1` , what GI50 is on record?
Result :: 41.1

---
Query :: For the compound `COc1ccc(-c2ccc(-c3ccc(-c4nc5c(O)cccc5[nH]4)cc3)cc2)cc1OC` , what GI50 is on record?
Result :: 2.11

Query :: For the compound `CN(C)c1ccc(-c2ccc(-c3ccc(-c4nc5ccccc5[nH]4)cc3)cc2)cc1` , what GI50 is on record?
Result :: 100

Query :: For the compound `Cc1ccc2[nH]c(-c3ccc(-c4ccc(-c5ccccc5)cc4)cc3)nc2c1` , what GI50 is on record?
Result :: 27.4

Query :: For the compound `Fc1ccc(-c2ccc(-c3ccc(-c4nc5ccccc5[nH]4)cc3)cc2)cc1` , what GI50 is on record?
Result :: 100
